Target or test system: UniProt:Q9HC98
Sequence (Q9HC98 whole entry): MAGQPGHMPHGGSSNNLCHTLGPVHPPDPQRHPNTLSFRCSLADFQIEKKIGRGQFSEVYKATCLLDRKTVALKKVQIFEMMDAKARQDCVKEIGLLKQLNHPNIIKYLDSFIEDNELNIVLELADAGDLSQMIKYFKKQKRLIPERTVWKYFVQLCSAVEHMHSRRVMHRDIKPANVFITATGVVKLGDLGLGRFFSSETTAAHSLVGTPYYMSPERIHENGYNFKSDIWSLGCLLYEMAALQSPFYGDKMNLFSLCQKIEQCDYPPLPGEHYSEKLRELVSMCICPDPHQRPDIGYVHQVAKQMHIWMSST
Measurement description: SelectScreen kinase specificity survey
Protocol conditions: estimated, abridged dose response curve, read-out: Kinase inhibitory activity EC50
pEC50: −log10 of the molar value.
Consider the following compounds and their measured pEC50 readings.
Readout label: pEC50

>>> measured_result("CN(C)CCCNc1ccc2ncn3c4ccc5[nH]ncc5c4c(=O)c1c23")
"< 5.30"
>>> measured_result("CCN(CC)CCNc1ccc2ncn3c4ccc(O)cc4c(=O)c1c23 [Symadex, reference compound]")
"< 5.30"

###

Target or test system: NTRK3 (TRKC) (Homo sapiens, UniProt Q16288)
Construct: purchased Invitrogen, Inc. (SelectScreen platform)
Sequence (Q16288 32-839): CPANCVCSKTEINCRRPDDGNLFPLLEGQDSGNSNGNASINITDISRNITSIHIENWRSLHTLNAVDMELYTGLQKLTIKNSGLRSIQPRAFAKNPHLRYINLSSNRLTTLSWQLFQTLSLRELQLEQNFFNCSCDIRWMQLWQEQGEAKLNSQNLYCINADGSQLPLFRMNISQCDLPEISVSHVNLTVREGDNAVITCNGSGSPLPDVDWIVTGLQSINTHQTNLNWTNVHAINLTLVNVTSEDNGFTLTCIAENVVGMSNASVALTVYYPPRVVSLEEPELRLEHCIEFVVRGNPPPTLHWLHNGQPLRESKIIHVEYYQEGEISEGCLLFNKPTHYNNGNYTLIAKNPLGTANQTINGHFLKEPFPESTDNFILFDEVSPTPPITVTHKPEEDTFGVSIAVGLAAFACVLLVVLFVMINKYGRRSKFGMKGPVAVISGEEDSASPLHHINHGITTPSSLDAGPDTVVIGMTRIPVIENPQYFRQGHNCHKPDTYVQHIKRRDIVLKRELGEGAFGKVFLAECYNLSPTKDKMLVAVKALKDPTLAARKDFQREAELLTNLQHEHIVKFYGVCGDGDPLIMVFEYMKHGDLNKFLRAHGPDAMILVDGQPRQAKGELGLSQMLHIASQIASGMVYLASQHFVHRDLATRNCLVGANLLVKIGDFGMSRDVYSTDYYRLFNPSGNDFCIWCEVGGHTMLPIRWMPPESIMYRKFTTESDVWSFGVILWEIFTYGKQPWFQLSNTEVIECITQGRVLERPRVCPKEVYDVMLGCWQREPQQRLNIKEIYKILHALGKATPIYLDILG
Measurement description: SelectScreen kinase specificity survey
Assay type: biochemical
Protocol conditions: NTRK3 (TRKC); estimated, abridged dose response curve; read-out: Kinase inhibitory activity EC50
pEC50: −log10 of the molar value.
Readout label: pEC50

>>> measured_result("CN(C)CCCNc1ccc2ncn3c4ccc5[nH]ncc5c4c(=O)c1c23")
6.62

###

Target or test system: HIPK1 (Myak) (Homo sapiens, UniProt Q86Z02)
Sequence (Q86Z02 whole entry): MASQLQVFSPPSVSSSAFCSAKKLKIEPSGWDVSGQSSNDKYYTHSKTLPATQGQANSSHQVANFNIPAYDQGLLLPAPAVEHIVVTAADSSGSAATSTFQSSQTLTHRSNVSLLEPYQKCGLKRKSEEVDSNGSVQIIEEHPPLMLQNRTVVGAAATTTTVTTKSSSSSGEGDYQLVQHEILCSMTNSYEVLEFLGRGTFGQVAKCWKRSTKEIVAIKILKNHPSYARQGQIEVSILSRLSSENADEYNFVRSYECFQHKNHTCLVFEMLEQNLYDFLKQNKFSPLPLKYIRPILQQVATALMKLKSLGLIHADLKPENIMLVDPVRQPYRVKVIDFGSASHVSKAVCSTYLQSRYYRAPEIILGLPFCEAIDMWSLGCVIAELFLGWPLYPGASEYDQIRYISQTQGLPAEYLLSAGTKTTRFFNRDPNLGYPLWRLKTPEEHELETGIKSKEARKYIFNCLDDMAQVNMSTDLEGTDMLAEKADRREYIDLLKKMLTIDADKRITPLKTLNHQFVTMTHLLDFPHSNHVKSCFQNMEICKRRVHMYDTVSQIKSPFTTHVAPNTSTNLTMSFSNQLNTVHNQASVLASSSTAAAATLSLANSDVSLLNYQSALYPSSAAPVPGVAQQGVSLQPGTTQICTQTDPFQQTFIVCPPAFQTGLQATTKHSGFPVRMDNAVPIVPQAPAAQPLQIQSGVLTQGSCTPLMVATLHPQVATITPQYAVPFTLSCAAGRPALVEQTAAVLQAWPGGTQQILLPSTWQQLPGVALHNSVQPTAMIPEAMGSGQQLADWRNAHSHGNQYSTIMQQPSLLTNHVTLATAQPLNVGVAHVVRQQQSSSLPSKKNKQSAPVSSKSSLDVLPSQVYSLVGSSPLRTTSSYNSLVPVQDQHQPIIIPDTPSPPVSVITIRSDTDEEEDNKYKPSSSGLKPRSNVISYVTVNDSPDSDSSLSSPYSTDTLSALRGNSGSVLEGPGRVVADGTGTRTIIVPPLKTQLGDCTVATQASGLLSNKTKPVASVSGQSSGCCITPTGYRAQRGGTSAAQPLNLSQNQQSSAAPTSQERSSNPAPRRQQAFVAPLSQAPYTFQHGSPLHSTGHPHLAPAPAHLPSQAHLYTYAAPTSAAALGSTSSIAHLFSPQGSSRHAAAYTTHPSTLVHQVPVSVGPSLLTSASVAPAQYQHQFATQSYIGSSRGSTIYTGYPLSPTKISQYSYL
Measurement description: SelectScreen kinase specificity survey
Protocol conditions: estimated, abridged dose response curve, read-out: Kinase inhibitory activity EC50
pEC50: −log10 of the molar value.
Readout label: pEC50

>>> measured_result("CN(C)CCCNc1ccc2ncn3c4ccc5[nH]ncc5c4c(=O)c1c23")
5.92

###

Consider the following compounds and their measured EC50 readings.
Target or test system: FGFR4 (Homo sapiens)
Sequence (P22455 22-802): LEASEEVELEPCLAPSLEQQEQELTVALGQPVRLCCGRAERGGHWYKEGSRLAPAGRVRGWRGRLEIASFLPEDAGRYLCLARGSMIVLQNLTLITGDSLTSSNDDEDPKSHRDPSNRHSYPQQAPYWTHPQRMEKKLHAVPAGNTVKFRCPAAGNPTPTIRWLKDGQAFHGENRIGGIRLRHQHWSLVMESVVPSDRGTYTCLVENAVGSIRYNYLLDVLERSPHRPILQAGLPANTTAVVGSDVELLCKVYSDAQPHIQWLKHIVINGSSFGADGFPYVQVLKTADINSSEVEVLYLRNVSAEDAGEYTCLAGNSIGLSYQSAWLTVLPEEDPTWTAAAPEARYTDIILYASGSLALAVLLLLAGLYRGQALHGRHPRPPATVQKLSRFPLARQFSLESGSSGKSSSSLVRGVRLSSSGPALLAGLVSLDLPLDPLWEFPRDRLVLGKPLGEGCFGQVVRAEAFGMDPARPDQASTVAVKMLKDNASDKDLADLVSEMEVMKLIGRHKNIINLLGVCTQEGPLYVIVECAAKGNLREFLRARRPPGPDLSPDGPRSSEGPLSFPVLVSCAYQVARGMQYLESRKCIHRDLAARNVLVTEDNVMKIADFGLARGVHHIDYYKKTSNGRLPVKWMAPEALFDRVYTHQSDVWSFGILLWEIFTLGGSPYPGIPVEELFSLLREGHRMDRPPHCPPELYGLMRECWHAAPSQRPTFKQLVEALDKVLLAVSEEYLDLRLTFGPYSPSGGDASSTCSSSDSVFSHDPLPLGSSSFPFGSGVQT
Measurement description: SelectScreen kinase specificity survey
Protocol conditions: estimated, abridged dose response curve, read-out: Kinase inhibitory activity EC50
Method: Testing of the compounds described in this invention was carried out using the SelectScreen™ platform from Invitrogen, Inc. (Carlsbad. Calif., USA) and the details of its performance are readily viewed via the web by linking to: http://www.invitrogen.com/downloads/SelectScrn_Brochure.pdf. Briefly, the approach is based on treating each specific kinase with a unique substrate and optical reporter system in the presence of ATP at 100 micromolar. […]
Readout label: EC50

>>> measured_result("CCN(CC)CCNc1ccc2ncn3c4ccc(O)cc4c(=O)c1c23 [Symadex, reference compound]")
"> 5 µM"
>>> measured_result("CN(C)CCCNc1ccc2ncn3c4ccc5[nH]ncc5c4c(=O)c1c23 [Compound (IV)]")
"> 5 µM"

###

Target or test system: MAPK8 (JNK1) (Homo sapiens, UniProt P45983)
Sequence (P45983 whole entry): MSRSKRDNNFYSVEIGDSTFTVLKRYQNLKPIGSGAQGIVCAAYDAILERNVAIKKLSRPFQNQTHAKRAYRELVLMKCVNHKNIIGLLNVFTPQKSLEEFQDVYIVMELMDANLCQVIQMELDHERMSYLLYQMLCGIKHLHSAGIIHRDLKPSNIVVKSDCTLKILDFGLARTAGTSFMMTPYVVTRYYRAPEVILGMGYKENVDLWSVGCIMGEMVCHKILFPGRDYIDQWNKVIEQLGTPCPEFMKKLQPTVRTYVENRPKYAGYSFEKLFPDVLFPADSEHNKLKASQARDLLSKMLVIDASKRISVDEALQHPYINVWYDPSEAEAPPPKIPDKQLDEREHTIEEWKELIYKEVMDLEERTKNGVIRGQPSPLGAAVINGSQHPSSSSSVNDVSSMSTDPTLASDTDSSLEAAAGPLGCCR
Measurement description: SelectScreen kinase specificity survey
Protocol conditions: estimated, abridged dose response curve, read-out: Kinase inhibitory activity EC50
Procedure: Testing of the compounds described in this invention was carried out using the SelectScreen™ platform from Invitrogen, Inc. (Carlsbad. Calif., USA) and the details of its performance are readily viewed via the web by linking to: http://www.invitrogen.com/downloads/SelectScrn_Brochure.pdf. Briefly, the approach is based on treating each specific kinase with a unique substrate and optical reporter system in the presence of ATP at 100 micromolar. […]
Readout label: EC50

>>> measured_result("CN(C)CCCNc1ccc2ncn3c4ccc5[nH]ncc5c4c(=O)c1c23")
"> 5 µM"
>>> measured_result("CCN(CC)CCNc1ccc2ncn3c4ccc(O)cc4c(=O)c1c23 [Symadex, reference compound]")
"> 5 µM"

###

Target or test system: CDK5/p35 (Homo sapiens, UniProt Q00535)
Sequence (Q00535 whole entry): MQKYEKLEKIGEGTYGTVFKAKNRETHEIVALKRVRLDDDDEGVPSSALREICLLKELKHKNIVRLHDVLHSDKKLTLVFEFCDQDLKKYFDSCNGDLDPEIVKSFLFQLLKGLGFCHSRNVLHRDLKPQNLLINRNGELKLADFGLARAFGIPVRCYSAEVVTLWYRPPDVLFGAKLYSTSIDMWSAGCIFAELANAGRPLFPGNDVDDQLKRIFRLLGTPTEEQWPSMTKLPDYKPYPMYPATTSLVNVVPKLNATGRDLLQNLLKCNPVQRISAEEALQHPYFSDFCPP
Sequence (Q15078 2-307 partner limits assumed): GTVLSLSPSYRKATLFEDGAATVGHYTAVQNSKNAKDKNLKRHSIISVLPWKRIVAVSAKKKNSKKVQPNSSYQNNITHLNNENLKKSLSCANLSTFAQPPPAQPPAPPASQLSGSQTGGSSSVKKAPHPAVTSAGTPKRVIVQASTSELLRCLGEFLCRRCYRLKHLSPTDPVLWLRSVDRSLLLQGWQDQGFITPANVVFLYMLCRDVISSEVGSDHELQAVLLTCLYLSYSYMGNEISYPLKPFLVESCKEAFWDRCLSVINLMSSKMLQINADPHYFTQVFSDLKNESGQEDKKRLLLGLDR
Measurement description: SelectScreen kinase specificity survey
Protocol conditions: estimated, abridged dose response curve, read-out: Kinase inhibitory activity EC50
Consider the following compounds and their measured EC50 readings.
Readout label: EC50

>>> measured_result("CCN(CC)CCNc1ccc2ncn3c4ccc(O)cc4c(=O)c1c23 [Symadex, reference compound]")
"> 5 µM"
>>> measured_result("CN(C)CCCNc1ccc2ncn3c4ccc5[nH]ncc5c4c(=O)c1c23")
"2.8 µM"

FYI, the data here is from patent US20100292231A1.
